- System: P. aeruginosa P262-101856
- assay.summary: Checkerboard assay
- Type: cell-based, Pseudomonas aeruginosa
- condition.summary: Pseudomonas aeruginosa, P262101856, agent alone, one value per checkerboard plate
value.type: MIC (µg/mL)
Just the number in µg/mL, nothing appended.

Lookup: I'd like to know its MIC. The compound in question is CC(C)(O/N=C(\C(=O)N[C@@H]1C(=O)N2C(C(=O)[O-])=C(C[n+]3ccccc3)CS[C@H]12)c1csc(N)n1)C(=O)O
Found: 8

Lookup: What does the record list as MIC for C[C@H]1[C@H](NC(=O)/C(=N\OC(C)(C)C(=O)O)c2csc(N)n2)C(=O)N1S(=O)(=O)O ?
Found: 32

Lookup: May I ask what MIC has been recorded for CC[C@H]1OC(=O)[C@H](C)[C@@H](O[C@H]2C[C@@](C)(OC)[C@@H](O)[C@H](C)O2)[C@H](C)[C@@H](O[C@@H]2O[C@H](C)C[C@H](N(C)C)[C@H]2O)[C@](C)(O)C[C@@H](C)C(=O)[C@H](C)[C@@H](O)[C@]1(C)O ?
Found: 2050

Lookup: Name the recorded MIC for CO[C@H]1/C=C/O[C@@]2(C)Oc3c(C)c(O)c4c(O)c(c(/C=N/N5CCN(C)CC5)c(O)c4c3C2=O)NC(=O)/C(C)=C\C=C\[C@H](C)[C@H](O)[C@@H](C)[C@@H](O)[C@@H](C)[C@H](OC(C)=O)[C@@H]1C .
Found: 512

* * *

- Test system: A. baumannii ATCC 17978
- assay.summary: microbe, parasite or virus in culture
- Assay type: cell-based, Acinetobacter baumannii
- condition.summary: at 2 μg/mL GCol
Bridge positions count the residues as written; N and C are the ends. Square brackets hold non-standard residues; d marks the D form. Peptide text beside a SMILES is read from it. * marks the point of attachment. X1 = CC[C@H](C)CCCCC(=O)*; Dab = NCC[C@H](N)C(=O)O
For each record, write down the corresponding Fold-potentiation of antibiotic.
Returns: the value as a bare number; no unit string appended.

Lookup: Please report the recorded Fold-potentiation of antibiotic for C=C[C@]1(C)C[C@@H](OC(=O)CO)[C@]2(C)[C@H](C)CC[C@]3(CCC(=O)[C@H]32)[C@@H](C)[C@@H]1O .
Found: 16

Lookup: Bench note: what Fold-potentiation of antibiotic did NC[C@H]1O[C@H](O[C@H]2[C@H](O)[C@@H](O[C@H]3O[C@H](CO)[C@@H](O)[C@H](N)[C@H]3O)[C@H](N)C[C@@H]2N)[C@H](N)C[C@@H]1O show?
Found: 1

Lookup: Can you share its Fold-potentiation of antibiotic? I mean this molecule: CO[C@@H]1[C@@H](OC(N)=O)[C@@H](O)[C@H](Oc2ccc3c(O)c(NC(=O)c4ccc(O)c(CC=C(C)C)c4)c(=O)oc3c2C)OC1(C)C
Found: 16

Lookup: What value of Fold-potentiation of antibiotic has been reported for the following molecule? O=C(N[C@H](CO)[C@H](O)c1ccc([N+](=O)[O-])cc1)C(Cl)Cl
Found: 1

Lookup: Which Fold-potentiation of antibiotic is reported for this molecule? CC(=O)NC[C@H]1CN(c2ccc(N3CCOCC3)c(F)c2)C(=O)O1
Found: 2

Lookup: Return reported Fold-potentiation of antibiotic; argument: CN(C)c1ccc(O)c2c1C[C@H]1C[C@H]3[C@H](N(C)C)C(O)=C(C(N)=O)C(=O)[C@@]3(O)C(O)=C1C2=O
Found: 1

Lookup: Give its Fold-potentiation of antibiotic value. Item: CC[C@H](C)CCCCC(=O)N[C@@H](CCN)C(=O)N[C@H](C(=O)N[C@@H](CCN)C(=O)N[C@H]1CCNC(=O)[C@H]([C@@H](C)O)NC(=O)[C@H](CCN)NC(=O)[C@H](CCN)NC(=O)[C@H](CC(C)C)NC(=O)[C@@H](CC(C)C)NC(=O)[C@H](CCN)NC1=O)[C@@H](C)O [Colistin, colistin] (X1-[Dab]T[Dab][Dab][Dab][dL]L[Dab][Dab]T; lactam 4-C (inferred); N-terminus assumed)
Found: 1

Lookup: What measured Fold-potentiation of antibiotic goes with CO[C@H]1/C=C/O[C@@]2(C)Oc3c(C)c(O)c4c(O)c(c(/C=N/N5CCN(C)CC5)c(O)c4c3C2=O)NC(=O)/C(C)=C\C=C\[C@H](C)[C@H](O)[C@@H](C)[C@@H](O)[C@@H](C)[C@H](OC(C)=O)[C@@H]1C ?
Found: 32

Lookup: Which Fold-potentiation of antibiotic reading was recorded for the molecule C[C@H]1COc2c(N3CCN(C)CC3)c(F)cc3c(=O)c(C(=O)O)cn1c23 ?
Found: 1

Lookup: Using the record for CCN1CCN(C(=O)N[C@@H](C(=O)N[C@@H]2C(=O)N3[C@@H]2SC(C)(C)[C@@H]3C(=O)O)c2ccccc2)C(=O)C1=O , report its Fold-potentiation of antibiotic.
Found: 1

Lookup: What does the data say about its Fold-potentiation of antibiotic? Entry: CCC[C@@H]1C[C@@H](C(=O)N[C@@H]([C@H]2O[C@H](SC)[C@H](O)[C@@H](O)[C@H]2O)[C@H](C)Cl)N(C)C1
Found: 2

Lookup: Request the reported Fold-potentiation of antibiotic associated with CN[C@H](CC(C)C)C(=O)N[C@H]1C(=O)N[C@@H](CC(N)=O)C(=O)N[C@H]2C(=O)N[C@H]3C(=O)N[C@H](C(=O)N[C@H](C(=O)O)c4cc(O)cc(O)c4-c4cc3ccc4O)[C@H](O)c3ccc(c(Cl)c3)Oc3cc2cc(c3O[C@@H]2O[C@H](CO)[C@@H](O)[C@H](O)[C@H]2O[C@H]2C[C@](C)(N)[C@H](O)[C@H](C)O2)Oc2ccc(cc2Cl)[C@H]1O
Found: 2
